// Ki lookup, one value per entry
TARGET DESC: AR in LNCaP cytosol (Homo sapiens, UniProt P10275, T878A)
Construct: endogenous in cells; host or cells: LNCaP cytosol
Sequence (P10275 1-920 T878A): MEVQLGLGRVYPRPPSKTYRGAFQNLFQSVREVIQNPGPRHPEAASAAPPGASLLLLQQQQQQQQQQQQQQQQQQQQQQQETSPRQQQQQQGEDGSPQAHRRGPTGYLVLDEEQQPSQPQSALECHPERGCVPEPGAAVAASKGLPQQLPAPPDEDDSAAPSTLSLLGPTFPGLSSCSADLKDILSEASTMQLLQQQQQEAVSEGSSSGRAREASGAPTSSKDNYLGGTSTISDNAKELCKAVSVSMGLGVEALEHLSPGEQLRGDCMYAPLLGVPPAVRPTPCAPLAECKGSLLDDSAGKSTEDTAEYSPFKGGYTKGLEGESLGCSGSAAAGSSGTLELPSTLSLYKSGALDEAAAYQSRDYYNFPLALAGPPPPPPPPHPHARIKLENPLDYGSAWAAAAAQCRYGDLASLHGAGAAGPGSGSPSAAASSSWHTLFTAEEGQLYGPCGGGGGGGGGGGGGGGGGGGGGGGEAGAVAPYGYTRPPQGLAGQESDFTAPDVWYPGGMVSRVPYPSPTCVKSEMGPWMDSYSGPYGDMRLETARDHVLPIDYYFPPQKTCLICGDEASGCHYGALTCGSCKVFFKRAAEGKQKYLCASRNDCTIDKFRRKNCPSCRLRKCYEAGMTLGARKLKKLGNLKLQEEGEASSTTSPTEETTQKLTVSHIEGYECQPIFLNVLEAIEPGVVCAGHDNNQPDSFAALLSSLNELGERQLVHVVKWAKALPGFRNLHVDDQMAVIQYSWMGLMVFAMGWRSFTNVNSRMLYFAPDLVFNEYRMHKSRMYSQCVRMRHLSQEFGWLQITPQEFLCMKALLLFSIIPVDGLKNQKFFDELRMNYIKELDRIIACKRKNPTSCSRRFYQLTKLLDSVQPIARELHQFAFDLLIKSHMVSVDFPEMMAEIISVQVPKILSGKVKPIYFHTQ
ASSAY NAME: AR binding assay (3H-methyltrienolone displacement)
MEASURE: Ki (nM)

molecule=C[C@]12CCC(=O)C[C@@H]1CC[C@@H]1[C@@H]2CC[C@]2(C)[C@@H](OCC(=O)N3CCN(C(=O)c4cc(Cc5n[nH]c(=O)c6ccccc56)ccc4F)CC3)CC[C@@H]12 measure=Ki measured=60
molecule="C[C@]12CCC(=O)C[C@@H]1CC[C@@H]1[C@@H]2CC[C@@]2(C)[C@H]1CC[C@@]2(O)CCC(=O)N1CCN(C(=O)c2cc(Cc3n[nH]c(=O)c4ccccc34)ccc2F)CC1 (stereo in doubt)" measure=Ki measured=60
molecule=C[C@](O)(CS(=O)(=O)c1ccc(NCCN2CCN(C(=O)c3cc(Cc4n[nH]c(=O)c5ccccc45)ccc3F)CC2)cc1)C(=O)Nc1ccc(C#N)c(C(F)(F)F)c1 measure=Ki measured=197
molecule=C[C@](O)(COc1ccc(NCCCCCC(=O)N2CCN(C(=O)c3cc(Cc4n[nH]c(=O)c5ccccc45)ccc3F)CC2)cc1)C(=O)Nc1ccc(C#N)c(C(F)(F)F)c1 measure=Ki measured=139

* * *

// pKi lookup, one value per entry
TARGET DESC: AR in LNCaP cytosol (Homo sapiens, UniProt P10275, T878A)
Construct: endogenous in cells; host or cells: LNCaP cytosol
ASSAY NAME: AR binding assay (3H-methyltrienolone displacement)
pKi: −log10 of the molar value.
MEASURE: pKi

molecule="C[C@]12CCC(O)C[C@@H]1CC[C@@H]1[C@@H]2CC[C@]2(C)[C@@H](OCCCCCC(=O)N3CCN(C(=O)c4cc(Cc5n[nH]c(=O)c6ccccc56)ccc4F)CC3)CC[C@@H]12 (stereo partly shown)" measured=7.44
molecule=CCN1C(=O)CN(CCCCCCNC(=O)c2ccc(N3C(=S)N(c4ccc(C#N)c(C(F)(F)F)c4)C(=O)C3(C)C)cc2F)c2ncc(-c3ccc(-c4nc[nH]n4)nc3C)nc21 measured=7.72
molecule=C[C@]12CCC(=O)C[C@@H]1CC[C@@H]1[C@@H]2CC[C@]2(C)[C@@H](OCCCCCC(=O)N3CCN(C(=O)c4cc(Cc5n[nH]c(=O)c6ccccc56)ccc4F)CC3)CC[C@@H]12 measured=8.88
molecule=C[C@]12CCC(F)(F)C[C@@H]1CC[C@@H]1[C@@H]2CC[C@]2(C)[C@@H](OCCCCCC(=O)N3CCN(C(=O)c4cc(Cc5n[nH]c(=O)c6ccccc56)ccc4F)CC3)CC[C@@H]12 measured=7.72
molecule=CCN1C(=O)CNc2ncc(-c3ccc(-c4ncn(CCCCCCNC(=O)c5ccc(N6C(=S)N(c7ccc(C#N)c(C(F)(F)F)c7)C(=O)C6(C)C)cc5F)n4)nc3C)nc21 measured=7.68
molecule=C[C@]12CCC(=O)C[C@@H]1CC[C@@H]1[C@@H]2CC[C@@]2(C)[C@H]1CC[C@@]2(O)CCCN1CCN(C(=O)c2cc(Cc3n[nH]c(=O)c4ccccc34)ccc2F)CC1 measured=7.70
molecule=C[C@](O)(CS(=O)(=O)c1ccc(NCC(=O)N2CCN(C(=O)c3cc(Cc4n[nH]c(=O)c5ccccc45)ccc3F)CC2)cc1)C(=O)Nc1ccc(C#N)c(C(F)(F)F)c1 measured=6.74
molecule=C[C@](O)(CS(=O)(=O)c1ccc(NCCCCCC(=O)N2CCN(C(=O)c3cc(Cc4n[nH]c(=O)c5ccccc45)ccc3F)CC2)cc1)C(=O)Nc1ccc(C#N)c(C(F)(F)F)c1 measured=6.04
molecule=CC1(C)C(=O)N(c2ccc(C#N)c(C(F)(F)F)c2)C(=S)N1c1ccc(C(=O)NCCCCCCNCc2ccc(-c3[nH]c4cc(F)cc5c4c3CCNC5=O)cc2)c(F)c1 measured=6.54
molecule="CC(O)(CS(=O)(=O)c1ccc(NCCn2cc(CN3CCN(C(=O)c4cc(Cc5n[nH]c(=O)c6ccccc56)ccc4F)CC3)nn2)cc1)C(=O)Nc1ccc(C#N)c(C(F)(F)F)c1 (stereo in doubt)" measured=6.30
